Biological target: Alpha-1D adrenergic receptor (Rattus norvegicus, UniProt P23944)
Sequence (P23944 whole entry): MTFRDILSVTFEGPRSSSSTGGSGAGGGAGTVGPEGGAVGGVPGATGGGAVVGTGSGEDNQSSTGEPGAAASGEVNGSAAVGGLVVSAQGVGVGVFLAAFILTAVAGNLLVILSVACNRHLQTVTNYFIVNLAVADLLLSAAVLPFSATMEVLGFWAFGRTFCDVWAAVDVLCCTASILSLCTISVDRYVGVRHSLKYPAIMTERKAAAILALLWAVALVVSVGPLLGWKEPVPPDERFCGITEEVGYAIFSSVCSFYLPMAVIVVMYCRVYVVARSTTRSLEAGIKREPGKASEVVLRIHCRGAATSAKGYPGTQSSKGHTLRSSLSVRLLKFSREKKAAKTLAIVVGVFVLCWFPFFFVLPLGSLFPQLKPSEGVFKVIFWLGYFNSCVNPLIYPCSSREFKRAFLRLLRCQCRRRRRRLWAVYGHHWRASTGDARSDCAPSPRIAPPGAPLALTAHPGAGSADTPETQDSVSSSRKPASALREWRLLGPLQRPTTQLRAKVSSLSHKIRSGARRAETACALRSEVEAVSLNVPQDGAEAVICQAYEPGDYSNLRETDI
Test: Antagonistic activity against (-)-noradrenaline-induced contraction of rat thoracic aorta (Alpha-1D adrenergic receptor)
Type: functional, tissue-based
Conditions: read-out: pA2 (converted)
Simple rule here: Kb less than 4 nM is met, otherwise not met.

The examples below pair each entry with its known result.
{"columns": ["compound", "testTarget", "assignedCategory"],
 "data": [
  ["COc1ccccc1OCCNCC1COC(c2ccccc2)(c2ccccc2)O1.O=C(O)C(=O)O (stereo not given)", "Alpha-1D adrenergic receptor (Rattus norvegicus, UniProt P23944)", "met"],
  ["COc1cccc(OC)c1OCCNCC1COC(c2ccccc2)(c2ccccc2)O1.O=C(O)C(=O)O (stereo not given)", "Alpha-1D adrenergic receptor (Rattus norvegicus, UniProt P23944)", "not met"],
  ["COc1cccc(OC)c1OCCNCC1COc2ccccc2O1 (stereo not given)", "Alpha-1D adrenergic receptor (Rattus norvegicus, UniProt P23944)", "met"]
]}

Criterion: Kb strictly below 4 nM. Is it met by O=C(O)C(=O)O.c1ccc(OCCNCC2COC(c3ccccc3)(c3ccccc3)O2)cc1 (stereo not given) ? not met

Determine whether this compound shows Kb lower than 4 nM (ties excluded): COc1cccc(OC)c1OCCNCC1CO[C@](C)(c2ccccc2)O1.O=C(O)C(=O)O (stereo not given in full) not met

* * *

I'd be grateful if you could share measured Selectivity for these entries.
Biological target: Alpha adrenergic receptor 1A and 1B (Rattus norvegicus) (UniProt P15823+P43140)
Sequence (P15823 whole entry, looked up): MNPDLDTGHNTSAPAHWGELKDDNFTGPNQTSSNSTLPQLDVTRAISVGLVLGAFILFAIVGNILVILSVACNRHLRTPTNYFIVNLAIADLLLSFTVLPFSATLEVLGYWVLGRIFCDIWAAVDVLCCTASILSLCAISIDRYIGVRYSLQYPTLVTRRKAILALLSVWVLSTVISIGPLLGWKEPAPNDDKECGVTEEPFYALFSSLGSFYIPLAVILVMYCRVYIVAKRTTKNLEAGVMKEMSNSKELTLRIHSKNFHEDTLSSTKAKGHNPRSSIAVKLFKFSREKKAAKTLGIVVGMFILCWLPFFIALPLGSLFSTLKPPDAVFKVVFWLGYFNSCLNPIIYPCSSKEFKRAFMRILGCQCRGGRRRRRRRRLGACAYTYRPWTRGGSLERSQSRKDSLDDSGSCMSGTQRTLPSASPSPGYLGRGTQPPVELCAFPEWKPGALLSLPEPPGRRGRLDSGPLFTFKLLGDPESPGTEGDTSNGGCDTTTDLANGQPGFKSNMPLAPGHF
Sequence (P43140 whole entry, looked up): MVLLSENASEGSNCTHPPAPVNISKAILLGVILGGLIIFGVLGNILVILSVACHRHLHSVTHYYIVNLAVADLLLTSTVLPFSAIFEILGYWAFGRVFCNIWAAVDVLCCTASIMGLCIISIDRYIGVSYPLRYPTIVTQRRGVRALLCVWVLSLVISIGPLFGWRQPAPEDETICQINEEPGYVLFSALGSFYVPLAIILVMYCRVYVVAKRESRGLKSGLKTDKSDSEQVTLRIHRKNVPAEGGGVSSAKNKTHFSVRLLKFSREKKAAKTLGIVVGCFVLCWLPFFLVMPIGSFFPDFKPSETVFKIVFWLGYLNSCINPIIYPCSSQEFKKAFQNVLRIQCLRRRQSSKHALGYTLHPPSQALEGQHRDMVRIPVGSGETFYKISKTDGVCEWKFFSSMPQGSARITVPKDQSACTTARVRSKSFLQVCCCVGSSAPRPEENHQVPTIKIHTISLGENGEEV
Assay: Selectivity given as ratio of pKb value against alpha1A receptor to pKb value against alpha-1B receptor in rat
Format: functional

{"columns": ["molecule", "Selectivity"],
 "data": [
  ["O=C(O)C(=O)O.c1ccc(OCCNCC2COC(c3ccccc3)(c3ccccc3)O2)cc1 (stereo not given)", 2],
  ["COc1cccc(OC)c1OCCNCC1CO[C@H](c2cccc3ccccc23)O1.O=C(O)C(=O)O (stereo not given in full)", "< 0.04"],
  ["O=C(O)C(=O)O.c1ccc(OCCNCC2COC3(CCCCC3)O2)cc1 (stereo not given)", 0.1],
  ["COc1cccc(OC)c1OCCNCC1CO[C@H](C(c2ccccc2)c2ccccc2)O1.O=C(O)C(=O)O (stereo not given in full)", 12]
]}

Would you kindly look at the next entry?
Documented Selectivity of COc1cccc(OC)c1OCCNCC1CO[C@@](C)(c2ccccc2)O1.O=C(O)C(=O)O (stereo not given in full) : 0.6

* * *

Target: Alpha-1D adrenergic receptor (Homo sapiens, UniProt P25100)
Sequence (P25100 whole entry): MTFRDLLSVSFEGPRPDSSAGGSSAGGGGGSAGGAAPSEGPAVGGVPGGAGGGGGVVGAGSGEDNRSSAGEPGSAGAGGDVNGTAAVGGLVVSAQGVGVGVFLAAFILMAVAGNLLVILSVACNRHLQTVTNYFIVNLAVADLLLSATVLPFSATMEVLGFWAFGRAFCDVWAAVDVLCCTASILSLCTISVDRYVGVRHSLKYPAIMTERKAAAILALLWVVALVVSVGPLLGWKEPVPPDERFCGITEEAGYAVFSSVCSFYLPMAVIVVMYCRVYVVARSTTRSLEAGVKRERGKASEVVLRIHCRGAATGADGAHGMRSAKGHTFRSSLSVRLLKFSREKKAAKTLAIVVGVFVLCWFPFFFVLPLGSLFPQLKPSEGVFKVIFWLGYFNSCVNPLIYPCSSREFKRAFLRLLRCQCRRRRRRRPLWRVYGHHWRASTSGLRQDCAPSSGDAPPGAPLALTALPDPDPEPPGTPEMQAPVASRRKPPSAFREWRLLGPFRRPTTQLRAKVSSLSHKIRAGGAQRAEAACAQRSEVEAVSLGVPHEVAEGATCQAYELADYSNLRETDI
Assay: Affinity constant towards human recombinant Alpha-1D adrenergic receptor using [3H]prazosin (from CHO cells) as radioligand by radioligand binding assay
I'd be grateful if you could share measured Ki for these entries.
Give bare numbers, in nM.

{"columns": ["compound", "unitsSymbol", "Ki"],
 "data": [
  ["O=C(O)C(=O)O.c1ccc(OCCNCC2COC(c3ccccc3)(c3ccccc3)O2)cc1 (centres undefined)", "nM", 11.5]
]}

Kindly review the next compound as well.
// Ki lookup, compound = COc1ccccc1OCCNCC1COC(c2ccccc2)(c2ccccc2)O1.O=C(O)C(=O)O (centres undefined) , result: 9.33

* * *

Molecular target: Alpha adrenergic receptor 1A and 1B (Rattus norvegicus) (UniProt P15823+P43140)
Test: Selectivity given as ratio of pKb value against alpha1A receptor to pKb value against alpha-1B receptor in rat
Type: functional
recordedEndpoint: Selectivity
Numbers only.

The following compounds have reported results that may help.
{"columns": ["compound", "Selectivity"],
 "data": [
  ["COc1cccc(OC)c1OCCNCC1CO[C@H](Cc2ccccc2)O1.O=C(O)C(=O)O (stereo not given in full)", 0.4],
  ["COc1ccccc1OCCNCC1COC(c2ccccc2)(c2ccccc2)O1.O=C(O)C(=O)O (stereo not given)", 1],
  ["COc1cccc(OC)c1OCCNCC1CO[C@@H](Cc2ccccc2)O1.O=C(O)C(=O)O (stereo not given in full)", 23]
]}

Answer for every listed entry: what is its Selectivity? The entries follow.
1. COc1cccc(OC)c1OCCNCC1CO[C@](C)(c2ccccc2)O1.O=C(O)C(=O)O (stereo not given in full)
2. COc1cccc(OC)c1OCCNCC1COC(c2ccc3ccccc3c2)O1.O=C(O)C(=O)O (stereo not given)

[2, 5]

* * *

Target: Alpha-1A adrenergic receptor (Homo sapiens, UniProt P35348)
Sequence (P35348 whole entry): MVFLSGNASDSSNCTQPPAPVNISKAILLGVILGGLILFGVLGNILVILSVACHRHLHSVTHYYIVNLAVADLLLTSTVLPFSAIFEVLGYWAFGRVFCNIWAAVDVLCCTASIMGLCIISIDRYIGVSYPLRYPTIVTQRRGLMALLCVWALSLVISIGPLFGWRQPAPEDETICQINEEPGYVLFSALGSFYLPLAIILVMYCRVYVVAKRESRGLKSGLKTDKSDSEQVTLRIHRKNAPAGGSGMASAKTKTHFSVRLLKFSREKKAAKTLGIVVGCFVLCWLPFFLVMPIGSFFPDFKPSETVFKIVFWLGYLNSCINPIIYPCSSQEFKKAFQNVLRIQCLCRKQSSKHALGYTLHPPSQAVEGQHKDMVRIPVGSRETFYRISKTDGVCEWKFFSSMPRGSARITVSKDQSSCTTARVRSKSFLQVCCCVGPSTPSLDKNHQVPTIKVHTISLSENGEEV
Experiment: Affinity constant towards human recombinant Alpha-1A adrenergic receptor using [3H]prazosin (from CHO cells) as radioligand by radioligand binding assay
Type: cell-based
recordedEndpoint: pKi
Numbers only, as −log10 of the molar value.

{"columns": ["molecule", "testTarget", "pKi"],
 "data": [
  ["CN(CCOc1ccccc1)CC1COC(c2ccccc2)(c2ccccc2)O1.O=C(O)C(=O)O (centres undefined)", "Alpha-1A adrenergic receptor (Homo sapiens, UniProt P35348)", 6.08],
  ["COc1ccccc1OCCNCC1COC(c2ccccc2)(c2ccccc2)O1.O=C(O)C(=O)O (centres undefined)", "Alpha-1A adrenergic receptor (Homo sapiens, UniProt P35348)", 7.61],
  ["C[N+](C)(CCOc1ccccc1)CC1COC(c2ccccc2)(c2ccccc2)O1.O=C([O-])C(=O)O (centres undefined)", "Alpha-1A adrenergic receptor (Homo sapiens, UniProt P35348)", 7.47]
]}

Please find the next molecule below.
Query O=C(O)C(=O)O.c1ccc(OCCNCC2COC(c3ccccc3)(c3ccccc3)O2)cc1 (centres undefined) on Alpha-1A adrenergic receptor (Homo sapiens, UniProt P35348); pKi returned: 7.43

* * *

Answer each item with its documented Selectivity.
Assay: Selectivity over human alpha-1d/alpha-1b receptor
Answers are plain numbers.

{"columns": ["compound", "recordedEndpoint", "reportedValue"],
 "data": [
  ["O=C(O)C(=O)O.c1ccc(OCCNCC2COC(c3ccccc3)(c3ccccc3)O2)cc1 (centres undefined)", "Selectivity", 6]
]}

Switching to the query record.
Looking up COc1ccccc1OCCNCC1COC(c2ccccc2)(c2ccccc2)O1.O=C(O)C(=O)O (centres undefined) , I found its Selectivity recorded as 7

* * *

Biological target: Alpha adrenergic receptor (1a and 1d) (Homo sapiens) (UniProt P35348+P25100)
Assay: Selectivity over human alpha-1d/alpha-1a receptor
Format: protein assay
recordedEndpoint: Selectivity
Answers are plain numbers.

{"columns": ["compound", "recordedEndpoint", "reportedValue"],
 "data": [
  ["COc1ccccc1OCCNCC1COC(c2ccccc2)(c2ccccc2)O1.O=C(O)C(=O)O (centres undefined)", "Selectivity", 3]
]}

Entry O=C(O)C(=O)O.c1ccc(OCCNCC2COC(c3ccccc3)(c3ccccc3)O2)cc1 (centres undefined) ; Selectivity = 3

* * *

Could you please report measured pKb for the items listed next?
Biological target: Alpha-1B adrenergic receptor (Rattus norvegicus) (UniProt P15823)
Assay: Inhibition of (-)-phenylephrine-induced contraction of rat spleen (Alpha-1B adrenergic receptor )
Format: functional, tissue-based

Answered examples (5):
{"columns": ["molecule", "pKb"],
 "data": [
  ["COc1cccc(OC)c1OCCNCC1CO[C@H](Cc2ccccc2)O1.O=C(O)C(=O)O (stereo not given in full)", 5.77],
  ["O=C(O)C(=O)O.c1ccc(OCCNCC2CO[C@@H](c3ccccc3)O2)cc1 (stereo not given in full)", 6.4],
  ["COc1cccc(OC)c1OCCNCC1CO[C@H](C(c2ccccc2)c2ccccc2)O1.O=C(O)C(=O)O (stereo not given in full)", 5.51],
  ["COc1cccc(OC)c1OCCNCC1CO[C@@H](C(c2ccccc2)c2ccccc2)O1.O=C(O)C(=O)O (stereo not given in full)", 5.44],
  ["CN(CCOc1ccccc1)CC1COC(c2ccccc2)(c2ccccc2)O1.O=C(O)C(=O)O (stereo not given)", 5.31]
]}

For each listed entry, give its pKb.
1. C[N+](C)(CCOc1ccccc1)CC1COC(c2ccccc2)(c2ccccc2)O1.O=C([O-])C(=O)O (stereo not given)
2. COc1cccc(OC)c1OCCNCC1CO[C@@](C)(c2ccccc2)O1.O=C(O)C(=O)O (stereo not given in full)
3. COc1cccc(OC)c1OCCNCC1COC(c2ccc3ccccc3c2)O1.O=C(O)C(=O)O (stereo not given)
4. COc1cccc(OC)c1OCCNCC1CO[C@H](c2ccccc2)O1.O=C(O)C(=O)O (stereo not given in full)
5. O=C(O)C(=O)O.c1ccc(OCCNCC2COC3(CCCCC3)O2)cc1 (stereo not given)

5.6
5.93
5.12
5.7
6.2
